Target: Hypoxia-inducible factor 1-alpha (Homo sapiens) (UniProt Q16665)
Sequence (Q16665 whole entry, looked up): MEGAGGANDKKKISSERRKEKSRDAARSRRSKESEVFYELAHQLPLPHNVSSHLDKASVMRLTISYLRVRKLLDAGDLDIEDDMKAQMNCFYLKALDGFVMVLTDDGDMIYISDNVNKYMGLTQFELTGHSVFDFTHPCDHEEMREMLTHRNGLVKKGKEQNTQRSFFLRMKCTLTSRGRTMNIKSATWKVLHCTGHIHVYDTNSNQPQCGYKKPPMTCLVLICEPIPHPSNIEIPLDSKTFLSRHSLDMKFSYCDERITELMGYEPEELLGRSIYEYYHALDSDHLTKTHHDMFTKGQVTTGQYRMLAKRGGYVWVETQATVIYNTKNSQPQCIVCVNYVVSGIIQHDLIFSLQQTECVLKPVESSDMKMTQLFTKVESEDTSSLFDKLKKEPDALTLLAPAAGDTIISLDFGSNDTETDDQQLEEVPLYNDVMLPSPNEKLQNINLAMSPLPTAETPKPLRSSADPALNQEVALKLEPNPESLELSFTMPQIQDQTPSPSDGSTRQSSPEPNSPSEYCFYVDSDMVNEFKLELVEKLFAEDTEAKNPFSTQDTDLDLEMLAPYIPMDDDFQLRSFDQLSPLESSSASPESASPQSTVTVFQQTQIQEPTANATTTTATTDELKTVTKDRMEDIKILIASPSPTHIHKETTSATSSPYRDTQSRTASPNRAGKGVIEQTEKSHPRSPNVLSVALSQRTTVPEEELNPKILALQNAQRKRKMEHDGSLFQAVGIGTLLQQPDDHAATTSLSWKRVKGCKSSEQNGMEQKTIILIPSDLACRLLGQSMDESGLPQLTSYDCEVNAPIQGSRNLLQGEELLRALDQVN
Assay: activators of HIF1alpha nuclear accumulation, confirmation, imaging, fluorescence, U2OS GFP-HIF1alpha (AID 434951)
Conditions: U2OS GFP-HIF1alpha nuclear intensity, high-content imaging
Active and inactive are the calls of the source.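 Rule for the calls: active = a fitted half-maximal concentration EC50 for the rise in nuclear signal no higher than ten times the top dose tested; inconclusive = flat fit with activity between 30% and 70%, or unusable fit; inactive = EC50 beyond ten times the top dose.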
Return exactly one item of true (1) (active), false (0) (inactive)

A selection of reference data follows.
{"COMPOUND": "CC(=O)NC(c1ccc(C(C)C)cc1)c1ccc2cccnc2c1O (stereo not given)", "QUALITATIVE_LABEL": "true (1)"}
{"COMPOUND": "CN(C)CCCN(C(=O)CCS(=O)(=O)c1ccccc1)c1nc2cc3c(cc2s1)OCO3", "QUALITATIVE_LABEL": "false (0)"}

Incoming: Per the assay record, what outcome was assigned to CCOC(=O)c1c(S(=O)(=O)N2CCCC2)c(C)n(C)c1C ?
Outgoing: false (0)

Incoming: # iterate: COc1cc2c(cc1OC)C(c1ccccc1)N(S(C)(=O)=O)CC2 (stereo not given)
Outgoing: false (0)

Incoming: # iterate: Cc1nc(-n2[nH]c3c(c2=O)CCCC3)[nH]c(=O)c1Cc1ccccc1
Outgoing: true (1)

###

Target: Hypoxia-inducible factor 1-alpha (Homo sapiens)
Experiment: activators of HIF1alpha nuclear accumulation, confirmation, imaging, fluorescence, U2OS GFP-HIF1alpha (AID 434951)
Details: U2OS GFP-HIF1alpha nuclear intensity, high-content imaging
The source made the active and inactive calls.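 The calls were made as follows: active = a fitted half-maximal concentration EC50 for the rise in nuclear signal no higher than ten times the top dose tested; inconclusive = flat fit with activity between 30% and 70%, or unusable fit; inactive = EC50 beyond ten times the top dose.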
Return exactly one item of yes (1) for active, no (0) for inactive

{"COMPOUND": "CNc1c2c(nn1C)CCCC2", "QUALITATIVE_LABEL": "no (0)"}

Incoming: Per the assay record, what outcome was assigned to Cc1ccc(C(=O)CSc2ccc(-c3ccncc3)nn2)cc1 ?
Outgoing: no (0)

Incoming: # iterate: CCC(=O)NC(c1ccccc1OC)c1ccc2cccnc2c1O (stereo unspecified)
Outgoing: yes (1)

Incoming: # iterate: COc1ccc2oc(C(=O)OCC(=O)Nc3ccccc3OC)c(C)c2c1
Outgoing: no (0)

Incoming: # iterate: Cc1nc2nc(-c3ccco3)nn2c(C)c1Cl
Outgoing: no (0)

###

Target: Hypoxia-inducible factor 1-alpha (Homo sapiens)
Assay: activators of HIF1alpha nuclear accumulation, confirmation, imaging, fluorescence, U2OS GFP-HIF1alpha (AID 434951)
Conditions: U2OS GFP-HIF1alpha nuclear intensity, high-content imaging
Activity calls are given as the source filed them.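 How the source made its calls: active means a fitted half-maximal concentration EC50 for the rise in nuclear signal no higher than ten times the top dose tested; inconclusive means flat fit with activity between 30% and 70%, or unusable fit; inactive means EC50 beyond ten times the top dose.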
Return exactly one item of active, inactive

A selection of reference data follows.
{"MOLECULE": "CCC(=O)NC(c1cccs1)c1ccc2cccnc2c1O (stereo not given)", "QUALITATIVE_LABEL": "active"}
{"MOLECULE": "O=C(N/N=C(\\c1ccccc1)c1ccccn1)c1cccc([N+](=O)[O-])c1", "QUALITATIVE_LABEL": "active"}
{"MOLECULE": "Cc1ccc(NC(=S)N/C(=N/S(=O)(=O)c2ccccc2)c2ccccc2)cc1", "QUALITATIVE_LABEL": "inactive"}
{"MOLECULE": "O=C(CSc1ncn[nH]1)NCCc1ccc(Cl)cc1Cl", "QUALITATIVE_LABEL": "inactive"}

Incoming: Per the assay record, what outcome was assigned to CC(C)CC(=O)NC(c1cccs1)c1ccc2cccnc2c1O (stereo not given) ?
Outgoing: active

Incoming: # iterate: Cc1onc(-c2c(Cl)cccc2Cl)c1C(=O)N=C(N)N1CCCC1
Outgoing: inactive
